assay: in vitro; details: human, hela cells, % viability
Lab note: cut-off is 90%. Strictly less in viability at 28.5 h, 10 µM is class 1. Exactly 90% or more is class 0.

[
  {
    "MOLECULE": "C=CCn1c(-c2sc(NC(=O)CN3C(=C)c4ccccc4C3=O)nc2C)n[nH]c1=S [CBK297909]",
    "DISCRETE_LABEL": "class 1"
  }
]

is_below(viability at 28.5 h, 10 µM, 90%) for CS(=O)(=O)Nc1nccnc1N1CCN(Cc2ccccc2)CC1 [CBK084268] ? class 0

Below 90% on viability at 28.5 h, 10 µM? Entry CC(=O)c1ccc(-c2nccnc2N[C@@H](CO)C(C)C)s1 [CBK037404] class 0

In the record for COc1ccc(-c2cc([C@H]3CN4CC[C@H]3C[C@@H]4CNC(C)=O)n(C)n2)cc1OC [CBK288757] , is viability at 28.5 h, 10 µM less than 90%? class 1

Report whether reported viability at 28.5 h, 10 µM is lower than 90% (strictly) for O=C1CCC(=O)N1CCn1c(=O)n(S(=O)(=O)c2cccc(Cl)c2)c2ccccc21 [CBK106493] class 0

Does this molecule meet the criterion viability at 28.5 h, 10 µM < 90%? O=C(c1ccncc1)N1CCCC(c2cc3ccccc3cn2)C1 (stereo not shown) [CBK285166] class 1

Item Cc1nc2c(c(=O)c3ccccc3n2C)c(=O)n1Cc1ccco1 [CBK287776] : viability at 28.5 h, 10 µM beneath 90%, strictly? class 0

Criterion: viability at 28.5 h, 10 µM strictly below 90%. Is it met by CC1(C)OC(=O)CC1C(=O)N1CCCC(COc2ccccc2F)C1 (stereo not shown) [CBK282098] ? class 0

Please indicate whether the reported viability at 28.5 h, 10 µM of Cc1ccc(C(=O)CSc2nc(O)c3nc[nH]c3n2)cc1 [CBK300520] is strictly below 90%. class 0

Given the entry COc1cc(-c2nnc(SCC(=O)O)n2-c2ccccc2)cc(OC)c1OC [CBK131695] , would its reported viability at 28.5 h, 10 µM be below 90%? class 0

From: paper PMC12040169
